# System Name: 17-beta-hydroxysteroid dehydrogenase type 2 (Homo sapiens) (UniProt P37059)
# Sequence (P37059 whole entry): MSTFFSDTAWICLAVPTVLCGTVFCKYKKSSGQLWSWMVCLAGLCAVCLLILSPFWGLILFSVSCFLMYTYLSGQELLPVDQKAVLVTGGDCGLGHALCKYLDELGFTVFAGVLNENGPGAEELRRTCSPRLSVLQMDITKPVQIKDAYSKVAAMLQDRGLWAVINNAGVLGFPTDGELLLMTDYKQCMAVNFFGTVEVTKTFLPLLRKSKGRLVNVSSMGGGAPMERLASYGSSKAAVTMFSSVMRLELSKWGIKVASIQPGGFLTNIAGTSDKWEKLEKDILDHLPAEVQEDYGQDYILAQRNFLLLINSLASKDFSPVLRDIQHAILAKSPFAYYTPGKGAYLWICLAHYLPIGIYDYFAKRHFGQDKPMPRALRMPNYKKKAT
# Assay Remarks: Inhibitory activity at 10 uM against 17-beta-hydroxysteroid dehydrogenase type 2 in MDAMB-231 human breast cancer cells using 2 nM [3H]estradiol
# Assay type: cell-based
# Condition Details: Cancer cell lines
Endpoint Label: inhibition (%)

Please review the following examples before continuing.
Molecule	System Name	inhibition / %
Cn1cc2c(n1)[C@@]1(C)CCC3c4ccc(O)cc4CCC3C1C2 (stereo partly drawn)	17-beta-hydroxysteroid dehydrogenase type 2 (Homo sapiens) (UniProt P37059)	24
Cn1ncc2c1[C@@]1(C)CCC3c4ccc(O)cc4CCC3C1C2 (stereo partly drawn)	17-beta-hydroxysteroid dehydrogenase type 2 (Homo sapiens) (UniProt P37059)	32
CNC(=O)c1[nH]nc2c1CC1C3CCc4cc(O)ccc4C3CC[C@]21C (stereo partly drawn)	17-beta-hydroxysteroid dehydrogenase type 2 (Homo sapiens) (UniProt P37059)	14
CC1(C#N)C[C@H]2C3CCc4cc(O)ccc4[C@H]3CC[C@]2(C)C1=O (single isomer, unassigned)	17-beta-hydroxysteroid dehydrogenase type 2 (Homo sapiens) (UniProt P37059)	12
CC1(C)C[C@H]2C3CCc4cc(O)ccc4[C@H]3CC[C@]2(C)C1=O (single isomer, unassigned)	17-beta-hydroxysteroid dehydrogenase type 2 (Homo sapiens) (UniProt P37059)	35
Cn1cccc1CNC(=O)c1[nH]nc2c1CC1C3CCc4cc(O)ccc4C3CC[C@]21C (stereo partly drawn)	17-beta-hydroxysteroid dehydrogenase type 2 (Homo sapiens) (UniProt P37059)	4
COCCn1cc2c(n1)[C@@]1(C)CCC3c4ccc(O)cc4CCC3C1C2 (stereo partly drawn)	17-beta-hydroxysteroid dehydrogenase type 2 (Homo sapiens) (UniProt P37059)	48
C[C@]12CCC3c4ccc(O)cc4CCC3C1CC(C=O)=C2O (stereo partly drawn)	17-beta-hydroxysteroid dehydrogenase type 2 (Homo sapiens) (UniProt P37059)	15
C[C@]12CCC3c4ccc(O)cc4CCC3C1Cc1c2n[nH]c1C(=O)NCC1CCCO1 (stereo partly drawn)	17-beta-hydroxysteroid dehydrogenase type 2 (Homo sapiens) (UniProt P37059)	4
C[C@]12CCC3c4ccc(O)cc4CCC3C1Cc1c2n[nH]c1C(=O)NCc1ccccn1 (stereo partly drawn)	17-beta-hydroxysteroid dehydrogenase type 2 (Homo sapiens) (UniProt P37059)	9

I: CC(C)Cn1cc2c(n1)[C@@]1(C)CCC3c4ccc(O)cc4CCC3C1C2 (stereo partly drawn)
II: C[C@]12CC[C@@H]3c4ccc(O)cc4CCC3[C@@H]1CC(=N/O)/C2=N\O (single isomer, unassigned)
// select label with min value of measured inhibition from [ I , II ] Answer by stating the label of the chosen item.
II
(II: 2%, I: 61%)

* * *

# System Name: UniProt P14061
# Assay Remarks: Inhibition of 17-beta-hydroxysteroid dehydrogenase type 1 expressed in T47D human breast cancer cells using 2 nM [3H]estrone
# Assay type: cell-based
Endpoint Label: pIC50
pIC50 (log units): -log10 of the concentration in mol/L.

Please review the following examples before continuing.
Molecule	System Name	pIC50
C[C@]12CC[C@@H]3c4ccc(O)cc4CCC3[C@@H]1C/C(=N/O)C2=O (single isomer, unassigned)	UniProt P14061	5.96
C[C@]12CCC3c4ccc(O)cc4CCC3C1Cc1c[nH]nc12 (some centres undefined)	UniProt P14061	6.74
C[C@]12CC[C@@H]3c4ccc(O)cc4CCC3[C@@H]1CC(C#N)C2=O (single isomer, unassigned)	UniProt P14061	5.00

Please look at the following molecule next.
For UniProt P14061, give the measured pIC50 of the entry C[C@]12CCC3c4ccc(O)cc4CCC3C1CC(C=O)=C2O (some centres undefined)
6.96

* * *

# System Name: 17-beta-hydroxysteroid dehydrogenase type 1 (Homo sapiens) (UniProt P14061)
# Sequence (P14061 whole entry): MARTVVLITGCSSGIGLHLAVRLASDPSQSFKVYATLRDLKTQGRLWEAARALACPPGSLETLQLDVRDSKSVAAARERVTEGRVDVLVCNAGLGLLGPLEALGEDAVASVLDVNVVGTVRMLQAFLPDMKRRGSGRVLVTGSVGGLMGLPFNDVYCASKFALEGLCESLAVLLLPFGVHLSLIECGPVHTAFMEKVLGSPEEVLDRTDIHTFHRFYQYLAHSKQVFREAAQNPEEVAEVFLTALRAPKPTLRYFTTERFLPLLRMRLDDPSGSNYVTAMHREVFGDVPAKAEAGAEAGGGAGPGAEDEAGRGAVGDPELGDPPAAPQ
# Assay Remarks: Inhibitory activity at 10 uM against 17-beta-hydroxysteroid dehydrogenase type 1 expressed in T47D human breast cancer cells using 2 nM [3H]estrone
# Assay type: cell-based
Endpoint Label: inhibition (%)

Compound	System Name	Numeric Result
COC(=O)Cn1ncc2c1[C@@]1(C)CCC3c4ccc(O)cc4CCC3C1C2 (stereo not given in full)	17-beta-hydroxysteroid dehydrogenase type 1 (Homo sapiens) (UniProt P14061)	79
Cn1ncc2c1[C@@]1(C)CCC3c4ccc(O)cc4CCC3C1C2 (stereo not given in full)	17-beta-hydroxysteroid dehydrogenase type 1 (Homo sapiens) (UniProt P14061)	43
CCOC(=O)C(=O)C1=C(O)[C@@]2(C)CCC3c4ccc(O)cc4CCC3C2C1 (stereo not given in full)	17-beta-hydroxysteroid dehydrogenase type 1 (Homo sapiens) (UniProt P14061)	75
COCCn1cc2c(n1)[C@@]1(C)CCC3c4ccc(O)cc4CCC3C1C2 (stereo not given in full)	17-beta-hydroxysteroid dehydrogenase type 1 (Homo sapiens) (UniProt P14061)	95
C[C@]12CCC3c4ccc(O)cc4CCC3C1Cc1c2n[nH]c1C(F)(F)F (stereo not given in full)	17-beta-hydroxysteroid dehydrogenase type 1 (Homo sapiens) (UniProt P14061)	75
C[C@]12CCC3c4ccc(O)cc4CCC3C1Cc1cccnc12 (stereo not given in full)	17-beta-hydroxysteroid dehydrogenase type 1 (Homo sapiens) (UniProt P14061)	78
CC1(C#N)C[C@H]2C3CCc4cc(O)ccc4[C@H]3CC[C@]2(C)C1=O (single isomer, unassigned)	17-beta-hydroxysteroid dehydrogenase type 1 (Homo sapiens) (UniProt P14061)	85
C[C@]12CC[C@@H]3c4ccc(O)cc4CCC3[C@@H]1CC(C#N)C2=O (single isomer, unassigned)	17-beta-hydroxysteroid dehydrogenase type 1 (Homo sapiens) (UniProt P14061)	77

a: C[C@]12CCC3c4ccc(O)cc4CCC3C1Cc1c2n[nH]c1C(=O)NCc1ccccn1 (stereo not given in full)
b: CNC(=O)c1[nH]nc2c1CC1C3CCc4cc(O)ccc4C3CC[C@]21C (stereo not given in full)
inhibition comparison. Which is larger, a or b ? Answer by stating the label of the chosen item.
a

* * *

# System Name: 17-beta-hydroxysteroid dehydrogenase type 1 (Homo sapiens) (UniProt P14061)
# Assay Remarks: Inhibitory activity at 10 uM against 17-beta-hydroxysteroid dehydrogenase type 1 expressed in T47D human breast cancer cells using 2 nM [3H]estrone
# Format: cell-based
Endpoint Label: inhibition (%)

1: CC1(C)C[C@H]2C3CCc4cc(O)ccc4[C@H]3CC[C@]2(C)C1=O (single isomer, unassigned)
2: CC(C)NC(=O)c1[nH]nc2c1CC1C3CCc4cc(O)ccc4C3CC[C@]21C (some centres undefined)
inhibition comparison. Which is larger, 1 or 2 ? Answer by stating the label of the chosen item.
1

* * *

# System Name: 17-beta-hydroxysteroid dehydrogenase type 1 (Homo sapiens)
# Assay Remarks: Inhibitory activity at 10 uM against 17-beta-hydroxysteroid dehydrogenase type 1 expressed in T47D human breast cancer cells using 2 nM [3H]estrone
# Type: cell-based
Endpoint Label: inhibition (%)

Compound	System Name	Unit Text	Numeric Result
CC(C)Cn1ncc2c1[C@@]1(C)CCC3c4ccc(O)cc4CCC3C1C2 (some centres undefined)	17-beta-hydroxysteroid dehydrogenase type 1 (Homo sapiens)	%	70
Cc1cnc(CNC(=O)c2[nH]nc3c2CC2C4CCc5cc(O)ccc5C4CC[C@]32C)cn1 (some centres undefined)	17-beta-hydroxysteroid dehydrogenase type 1 (Homo sapiens)	%	80
CCOC(=O)c1[nH]nc2c1CC1C3CCc4cc(O)ccc4C3CC[C@]21C (some centres undefined)	17-beta-hydroxysteroid dehydrogenase type 1 (Homo sapiens)	%	94
Cn1cc2c(n1)[C@@]1(C)CCC3c4ccc(O)cc4CCC3C1C2 (some centres undefined)	17-beta-hydroxysteroid dehydrogenase type 1 (Homo sapiens)	%	94

* * *

# System Name: 17-beta-hydroxysteroid dehydrogenase type 2 (Homo sapiens) (UniProt P37059)
# Assay Remarks: Inhibitory activity at 10 uM against 17-beta-hydroxysteroid dehydrogenase type 2 in MDAMB-231 human breast cancer cells using 2 nM [3H]estradiol
# Format: cell-based
# Condition Details: Cancer cell lines
Endpoint Label: inhibition (%)

Please review the following examples before continuing.
Compound	System Name	inhibition [%]
CCN(C)C(=O)c1[nH]nc2c1CC1C3CCc4cc(O)ccc4C3CC[C@]21C (some centres not stated)	17-beta-hydroxysteroid dehydrogenase type 2 (Homo sapiens) (UniProt P37059)	6
C[C@]12CCC3c4ccc(O)cc4CCC3C1Cc1cn(CCC#N)nc12 (some centres not stated)	17-beta-hydroxysteroid dehydrogenase type 2 (Homo sapiens) (UniProt P37059)	44
C[C@]12CC[C@@H]3c4ccc(O)cc4CCC3[C@@H]1C/C(=N/O)C2=O (single isomer, unassigned)	17-beta-hydroxysteroid dehydrogenase type 2 (Homo sapiens) (UniProt P37059)	5

P: CCOC(=O)c1[nH]nc2c1CC1C3CCc4cc(O)ccc4C3CC[C@]21C (some centres not stated)
Q: COCCn1ncc2c1[C@@]1(C)CCC3c4ccc(O)cc4CCC3C1C2 (some centres not stated)
R: C[C@]12CCC3c4ccc(O)cc4CCC3C1Cc1c(CO)n[nH]c12 (some centres not stated)
S: C[C@]12CCC3c4ccc(O)cc4CCC3C1Cc1c2n[nH]c1C(F)(F)F (some centres not stated)
Rank the 4 compounds: largest inhibition first, smallest last. Put the labels in the requested order and write them down.
Q, S, P, R
